Below, each entry is listed alongside its reported Membrane fusion caused by SNARE (% of fusion without inhibitor).
Molecular target: membrane fusion caused by SNARE (SNAP25, syntaxin 1A, VAMP2) (UniProt P60879+P63045+Q16623)
Construct: made in house; host or cells: E. coli (Codon (+) RIL, Novagen)
Sequence (P60879 whole entry, the tested form may be a part): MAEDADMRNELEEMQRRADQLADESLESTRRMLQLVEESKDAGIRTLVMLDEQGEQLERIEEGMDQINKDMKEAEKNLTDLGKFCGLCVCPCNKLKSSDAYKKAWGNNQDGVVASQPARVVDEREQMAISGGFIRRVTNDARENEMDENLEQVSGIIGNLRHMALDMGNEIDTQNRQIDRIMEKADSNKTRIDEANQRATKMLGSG
Sequence (Q16623 whole entry, the tested form may be a part): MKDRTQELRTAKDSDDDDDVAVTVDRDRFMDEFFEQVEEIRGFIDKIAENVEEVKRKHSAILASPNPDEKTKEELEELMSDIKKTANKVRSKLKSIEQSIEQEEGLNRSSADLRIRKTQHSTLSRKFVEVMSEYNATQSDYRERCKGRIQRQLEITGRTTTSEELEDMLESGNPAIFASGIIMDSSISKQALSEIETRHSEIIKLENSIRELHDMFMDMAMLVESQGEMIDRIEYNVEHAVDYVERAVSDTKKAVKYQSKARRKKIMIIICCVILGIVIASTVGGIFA
Sequence (P63045 whole entry, the tested form may be a part): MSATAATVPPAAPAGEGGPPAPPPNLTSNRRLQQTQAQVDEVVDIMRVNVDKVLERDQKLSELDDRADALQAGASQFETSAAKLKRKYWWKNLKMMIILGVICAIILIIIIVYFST
Test: Membrane fusion assay with SNARE-reconstituted liposomes (fluorescence)
Format: biochemical
Settings: 20 μM phenolic compound; 100% = no inhibitor added
API: value field is a number in %; no unit string.

The following compounds have reported results that may help.
1. O=C(O[C@@H]1Cc2c(O)cc(O)cc2O[C@@H]1c1cc(O)c(O)c(O)c1)c1cc(O)c(O)c(O)c1 [EGCG, Epigallocatechin gallate] :: 57.59
2. Oc1cc(O)c2c(c1)O[C@H](c1ccc(O)c(O)c1)[C@H](O)C2 [(−)-Epicatechin] :: 97.98
3. COc1cc2c(c(OC)c1OC)-c1c(cc3c(c1OC)OCO3)C[C@H](C)[C@H](C)C2 :: 92.31
4. Oc1cc(O)c2c(c1)O[C@H](c1ccc(O)c(O)c1)[C@@H](O)C2 [(+)-Catechin] :: 89.15
5. O=c1c(O)c(-c2ccc(O)c(O)c2)oc2c(O[C@@H]3O[C@H](CO)[C@@H](O)[C@H](O)[C@H]3O)c(O)cc(O)c12 :: 103.19
6. COc1cc2c(c(OC)c1OC)-c1c(cc3c(c1OC)OCO3)C[C@H](C)[C@](C)(O)C2 :: 79.63

Lookup: Find the measured Membrane fusion caused by SNARE (% of fusion without inhibitor) of COc1ccc([C@@H]2CC(=O)c3c(O)cc(O[C@@H]4O[C@H](CO[C@@H]5O[C@@H](C)[C@H](O)[C@@H](O)[C@H]5O)[C@@H](O)[C@H](O)[C@H]4O)cc3O2)cc1O and report it.
Found: 124.11
